B1: library; a variant is named by its letters at N, in order (parent)
chain: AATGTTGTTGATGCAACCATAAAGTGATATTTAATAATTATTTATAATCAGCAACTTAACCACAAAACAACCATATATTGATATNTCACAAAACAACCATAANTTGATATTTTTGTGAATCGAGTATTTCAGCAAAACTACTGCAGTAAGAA

# Variants of: B1
# ASSAY_SUMMARY: relative integration efficiency (T-LR orientation) vs wild-type transposon end (log2 (normalized fold change)); transposon end mutated: left end; higher = more efficient transposition
# CONDITION_DETAILS: with VchCAST RNA-guided transposition machinery (E. coli BL21(DE3) host, lacZ target)
ASSAY_METRIC: relative integration efficiency (log2)
Output spec: single numeric token, no unit.

Below, 3 variants whose answers are already recorded.
[[record]]
changes = "GG T31A T111A"
assay_value = -0.483

[[record]]
changes = "CG C17G"
assay_value = 0.155

[[record]]
changes = "TA A22T G24T T31C A33C A70C T76A T84A C87A A96C T110A T113A"
assay_value = -0.841


Shifting focus to the variant that follows.
Query: Item under review: TA A16C G24T T30A A70C T76A T86G A96C T112G T113C . Reported relative integration efficiency (log2)?
Result: -0.394
